Reference for the values: ChEMBL document CHEMBL1145242

- Protocol Summary: Half life value at pH-7.4
- Type: ADME
Kindly state half-life for each of the entries shown.

Ask | Which half-life is reported for this compound? "COCCOCCOCCOC(=O)OC[n+]1ccc(N/C(=N/CCCCCCOc2ccc(Cl)cc2)NC#N)cc1.[Cl-]"
Reply | > 4 h

Ask | Which half-life is reported for this compound? "Cl.N#CN/C(=N\CCCCCCOc1ccc(Cl)cc1)Nc1cc[n+](COC(=O)NCCCN)cc1.[Cl-]"
Reply | > 4 h

Ask | Which half-life is reported for this compound? "COCCOCCOC(=O)OC[n+]1ccc(N/C(=N/CCCCCCOc2ccc(Cl)cc2)NC#N)cc1.[Cl-]"
Reply | > 4 h

Ask | Which half-life is reported for this compound? "Cl.N#CN/C(=N\CCCCCCOc1ccc(Cl)cc1)Nc1cc[n+](COC(=O)OCCCCCCCCCN)cc1.[Cl-]"
Reply | > 4 h

Ask | Which half-life is reported for this compound? COCCOCCOCCOCCOC(=O)OC[n+]1ccc(N/C(=N/C#N)NCCCCCCOc2ccc(Cl)cc2)cc1.[Cl-] [TEGLARINAD CHLORIDE]
Reply | > 4 h
